Catalogue of pIC50 values
# target_of_assay: Cytochrome P450 11B1, mitochondrial (Homo sapiens)
# Sequence (P15538 whole entry): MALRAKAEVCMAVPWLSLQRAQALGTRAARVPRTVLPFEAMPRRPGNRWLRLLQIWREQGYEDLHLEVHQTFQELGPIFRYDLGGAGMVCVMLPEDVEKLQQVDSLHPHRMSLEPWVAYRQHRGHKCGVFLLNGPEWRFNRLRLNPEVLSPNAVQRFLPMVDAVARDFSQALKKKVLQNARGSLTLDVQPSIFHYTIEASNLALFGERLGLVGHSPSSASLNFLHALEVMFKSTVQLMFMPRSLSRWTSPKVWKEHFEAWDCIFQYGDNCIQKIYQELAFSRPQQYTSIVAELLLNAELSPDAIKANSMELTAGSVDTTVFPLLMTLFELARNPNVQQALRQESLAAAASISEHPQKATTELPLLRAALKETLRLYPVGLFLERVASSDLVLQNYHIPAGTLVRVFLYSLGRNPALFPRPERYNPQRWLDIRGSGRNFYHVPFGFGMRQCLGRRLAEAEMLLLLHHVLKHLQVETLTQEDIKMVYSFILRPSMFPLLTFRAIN
Note on pIC50: it is the negative log10 of concentration, concentration in mol/L.

[
  {
    "compound": "OC(Cn1cncn1)(Cn1cncn1)c1ccc(F)cc1F [FLUCONAZOLE]",
    "target_of_assay": "Cytochrome P450 11B1, mitochondrial (Homo sapiens)",
    "parameter": "pIC50",
    "numeric_result": 4.52
  }
]

[in] Recorded pIC50 for CC[C@@H]([C@H](C)O)n1ncn(-c2ccc(N3CCN(c4ccc(OC[C@@H]5CO[C@@](Cn6cncn6)(c6ccc(F)cc6F)C5)cc4)CC3)cc2)c1=O [POSACONAZOLE] with Cytochrome P450 11B1, mitochondrial (Homo sapiens), please?
[out] 6.51

* * *

Values of IC50 reported for Cytochrome P450 3A4 (Homo sapiens, UniProt P08684) appear below.

Below, 4 compounds whose answers are already recorded.
[
  {
    "compound": "CNC(=O)c1ccc(COc2ccc(C#Cc3ccc(C(F)(F)C(O)(Cn4cnnn4)c4ccc(F)cc4F)nc3)cc2)cc1 (centres undefined)",
    "IC50": "122 µM"
  },
  {
    "compound": "OC(Cn1cnnn1)(c1ccc(F)cc1F)C(F)(F)c1ccc(C#Cc2ccc(NCC(F)(F)F)cc2)cn1 (centres undefined)",
    "IC50": "10 µM"
  },
  {
    "compound": "N#Cc1ccc(COc2ccc(C#Cc3ccc(C(F)(F)C(O)(Cn4cnnn4)c4cc(F)ccc4F)nc3)cc2)cc1 (centres undefined)",
    "IC50": "> 200 µM"
  },
  {
    "compound": "OC(Cn1cnnn1)(c1ccc(F)cc1F)C(F)(F)c1ccc(C#Cc2ccc(OCC(F)F)cc2)cn1 (centres undefined)",
    "IC50": "60 µM"
  }
]

[in] I'd like to know its IC50. The compound in question is OC(Cn1cnnn1)(c1ccc(F)cc1F)C(F)(F)c1ccc(C#Cc2ccc(OCc3ccc(CC(F)F)cc3)cc2)cn1 (stereo in doubt; 7e)
[out] > 200 µM

[in] I'd like to know its IC50. The compound in question is N#Cc1ccc(COc2ccc(C#Cc3ccc(C(F)(F)C(O)(Cn4cnnn4)c4ccc(F)cc4F)nc3)cc2)cc1F (stereo in doubt; 8a)
[out] > 200 µM

[in] I'd like to know its IC50. The compound in question is N#Cc1ccc(COc2ccc(C#Cc3ccc(C(F)(F)C(O)(Cn4cnnn4)c4ccc(F)cc4F)nc3)cc2)cc1F (single isomer, unassigned; (+))
[out] > 200 µM

[in] I'd like to know its IC50. The compound in question is OC(Cn1cnnn1)(c1ccc(F)cc1F)C(F)(F)c1ccc(C#Cc2cccc(Cl)c2)cn1 (centres undefined)
[out] > 200 µM

[in] I'd like to know its IC50. The compound in question is N#Cc1ccc(OCc2ccc(C#Cc3ccc(C(F)(F)C(O)(Cn4cnnn4)c4ccc(F)cc4F)nc3)cc2)cc1 (centres undefined)
[out] > 200 µM

[in] I'd like to know its IC50. The compound in question is O[C@@](Cn1cnnn1)(c1ccc(F)cc1F)C(F)(F)c1ccc(-c2ccc(OCC(F)(F)F)cc2)cn1
[out] 65 µM

[in] I'd like to know its IC50. The compound in question is N#Cc1ccc(COc2ccc(C#Cc3ccc(C(F)(F)C(O)(Cn4cnnn4)c4ccc(Cl)cc4F)nc3)cc2)cc1 (centres undefined)
[out] > 200 µM

[in] I'd like to know its IC50. The compound in question is OC(Cn1cnnn1)(c1ccc(F)cc1F)C(F)(F)c1ccc(C#Cc2ccc(OCc3ccc(OC(F)(F)F)cc3)cc2)cn1 (centres undefined)
[out] > 200 µM

[in] I'd like to know its IC50. The compound in question is N#Cc1cccc(COc2ccc(C#Cc3ccc(C(F)(F)C(O)(Cn4cnnn4)c4ccc(F)cc4F)nc3)cc2)c1 (centres undefined)
[out] > 200 µM

[in] I'd like to know its IC50. The compound in question is N#Cc1ccc(COc2ccc(C#Cc3ccc(C(F)(F)C(O)(Cn4cnnn4)c4ccc(F)cc4F)nc3)cc2)cc1 (single isomer, unassigned; (+))
[out] > 200 µM

* * *

# target_of_assay: Lanosterol 14-alpha demethylase (Aspergillus) (UniProt B8NUK6+Q9P8R0+G4WW85)
# assay_summary: Inhibition of CYP51 in Aspergillus fumigatus assessed as inhibition of microbe growth incubated for 48 to 168 hrs by CLSI M27-A3 guideline based method
parameter: MIC100 (µg/mL)
Record the value in µg/mL, omitting the unit from your answer.

Below, 6 molecules whose answers are already recorded.
[
  {
    "molecule": "OC(Cn1cnnn1)(c1ccc(F)cc1F)C(F)(F)c1ccc(C#Cc2ccc(OCC(F)F)cc2)cn1 (stereo unspecified)",
    "parameter": "MIC100",
    "numeric_result": 64
  },
  {
    "molecule": "N#Cc1ccc(COc2ccc(C#Cc3ccc(C(F)(F)C(O)(Cn4cnnn4)c4ccc(F)cc4F)nc3)cc2)cc1 (stereo in doubt; 7f)",
    "parameter": "MIC100",
    "numeric_result": 8
  },
  {
    "molecule": "CC[C@@H]([C@H](C)O)n1ncn(-c2ccc(N3CCN(c4ccc(OC[C@@H]5CO[C@@](Cn6cncn6)(c6ccc(F)cc6F)C5)cc4)CC3)cc2)c1=O",
    "parameter": "MIC100",
    "numeric_result": 0.062
  },
  {
    "molecule": "OC(Cn1cnnn1)(c1ccc(F)cc1F)C(F)(F)c1ccc(C#Cc2ccc(OCc3ccc(F)cc3)cc2)cn1 (stereo unspecified)",
    "parameter": "MIC100",
    "numeric_result": 32
  },
  {
    "molecule": "N#Cc1ccc(COc2ccc(C#Cc3ccc(C(F)(F)C(O)(Cn4cnnn4)c4ccc(F)cc4F)nc3)cc2)cc1F (stereo in doubt; 8a)",
    "parameter": "MIC100",
    "numeric_result": 1
  },
  {
    "molecule": "OC(Cn1cnnn1)(c1ccc(F)cc1F)C(F)(F)c1ccc(C#Cc2ccc(NCC(F)(F)F)cc2)cn1 (stereo unspecified)",
    "parameter": "MIC100",
    "numeric_result": 4
  }
]

Read the next record carefully.
[in] I'd like to know its MIC100. The molecule in question is OC(Cn1cnnn1)(c1ccc(F)cc1F)C(F)(F)c1ccc(C#Cc2ccc(F)cc2)cn1 (single isomer, unassigned; (+))
[out] 16

* * *

# assay_summary: Tmax in Swiss albino mouse at 5 mg/kg, po measured during 0.5 to 48 hrs post dose by HPLC/MS/MS method
# Type: ADME, organism-based
# measurement_conditions: in vivo
parameter: Tmax (h)
Record the value in h, omitting the unit from your answer.

[in] I'd like to know its Tmax. The molecule in question is N#Cc1ccc(COc2ccc(C#Cc3ccc(C(F)(F)C(O)(Cn4cnnn4)c4ccc(F)cc4F)nc3)cc2)cc1 (single isomer, unassigned; (+))
[out] 4

* * *

# target_of_assay: Steroid 17-alpha-hydroxylase/17,20 lyase (Homo sapiens, UniProt P05093)
# Sequence (P05093 whole entry): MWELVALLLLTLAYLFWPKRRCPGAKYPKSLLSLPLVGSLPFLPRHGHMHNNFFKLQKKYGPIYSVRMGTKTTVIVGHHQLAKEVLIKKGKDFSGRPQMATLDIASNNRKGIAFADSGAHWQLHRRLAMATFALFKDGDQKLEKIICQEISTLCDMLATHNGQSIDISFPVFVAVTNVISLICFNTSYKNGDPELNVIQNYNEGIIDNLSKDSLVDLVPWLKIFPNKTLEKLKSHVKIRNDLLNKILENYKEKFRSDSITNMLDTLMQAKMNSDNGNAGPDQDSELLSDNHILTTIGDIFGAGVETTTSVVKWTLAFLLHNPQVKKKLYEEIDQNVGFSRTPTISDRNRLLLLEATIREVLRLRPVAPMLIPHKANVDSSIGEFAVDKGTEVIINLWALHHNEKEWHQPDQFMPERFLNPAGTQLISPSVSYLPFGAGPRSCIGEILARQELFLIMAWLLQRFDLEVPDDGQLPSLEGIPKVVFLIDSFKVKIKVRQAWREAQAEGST
# assay_summary: Inhibition of CYP17 lyase in human hepatocyte microsomes using 17a-hydroxypregnenolone substrate by HPLC/MS/MS method
# Assay type: ADME
Catalogue of IC50 values
Record the value in µM, omitting the unit from your answer.

[
  {
    "molecule": "N#Cc1ccc(COc2ccc(C#Cc3ccc(C(F)(F)C(O)(Cn4cnnn4)c4ccc(F)cc4F)nc3)cc2)cc1 (single isomer, unassigned; (+))",
    "numeric_result": 38
  }
]

Read the next record carefully.
[in] Recorded IC50 for CC[C@@H]([C@H](C)O)n1ncn(-c2ccc(N3CCN(c4ccc(OC[C@@H]5CO[C@@](Cn6cncn6)(c6ccc(F)cc6F)C5)cc4)CC3)cc2)c1=O [POSACONAZOLE] with Steroid 17-alpha-hydroxylase/17,20 lyase (Homo sapiens, UniProt P05093), please?
[out] 0.042

* * *

# target_of_assay: Lanosterol 14-alpha demethylase (Aspergillus, UniProt B8NUK6+G4WW85+Q9P8R0)
# Sequence (B8NUK6 whole entry): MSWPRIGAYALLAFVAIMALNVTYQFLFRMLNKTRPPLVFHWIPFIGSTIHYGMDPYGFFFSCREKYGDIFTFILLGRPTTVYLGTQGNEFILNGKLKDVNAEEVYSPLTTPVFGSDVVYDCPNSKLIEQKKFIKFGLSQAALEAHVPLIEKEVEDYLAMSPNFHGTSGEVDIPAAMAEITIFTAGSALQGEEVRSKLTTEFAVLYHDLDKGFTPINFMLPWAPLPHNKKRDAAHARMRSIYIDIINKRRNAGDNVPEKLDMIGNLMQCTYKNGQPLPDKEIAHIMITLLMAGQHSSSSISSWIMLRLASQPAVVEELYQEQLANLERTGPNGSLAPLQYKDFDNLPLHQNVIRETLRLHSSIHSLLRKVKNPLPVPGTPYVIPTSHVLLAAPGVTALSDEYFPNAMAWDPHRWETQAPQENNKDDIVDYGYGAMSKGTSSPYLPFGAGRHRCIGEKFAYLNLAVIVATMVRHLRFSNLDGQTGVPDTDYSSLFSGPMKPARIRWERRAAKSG
# Sequence (Q9P8R0 whole entry): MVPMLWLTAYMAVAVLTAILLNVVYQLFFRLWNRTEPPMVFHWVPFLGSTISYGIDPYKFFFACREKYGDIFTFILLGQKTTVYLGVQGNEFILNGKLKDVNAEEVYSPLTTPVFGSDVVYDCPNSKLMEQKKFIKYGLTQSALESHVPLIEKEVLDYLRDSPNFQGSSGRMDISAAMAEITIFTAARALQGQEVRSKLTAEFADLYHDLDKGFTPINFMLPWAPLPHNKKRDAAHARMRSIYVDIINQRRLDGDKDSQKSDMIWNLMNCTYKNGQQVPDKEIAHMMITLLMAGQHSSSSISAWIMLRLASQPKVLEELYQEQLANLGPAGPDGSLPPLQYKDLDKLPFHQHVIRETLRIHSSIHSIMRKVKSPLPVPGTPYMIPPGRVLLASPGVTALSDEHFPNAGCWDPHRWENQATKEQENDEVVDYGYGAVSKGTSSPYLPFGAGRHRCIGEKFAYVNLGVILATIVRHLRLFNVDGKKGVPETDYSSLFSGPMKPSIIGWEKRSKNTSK
# Sequence (G4WW85 whole entry): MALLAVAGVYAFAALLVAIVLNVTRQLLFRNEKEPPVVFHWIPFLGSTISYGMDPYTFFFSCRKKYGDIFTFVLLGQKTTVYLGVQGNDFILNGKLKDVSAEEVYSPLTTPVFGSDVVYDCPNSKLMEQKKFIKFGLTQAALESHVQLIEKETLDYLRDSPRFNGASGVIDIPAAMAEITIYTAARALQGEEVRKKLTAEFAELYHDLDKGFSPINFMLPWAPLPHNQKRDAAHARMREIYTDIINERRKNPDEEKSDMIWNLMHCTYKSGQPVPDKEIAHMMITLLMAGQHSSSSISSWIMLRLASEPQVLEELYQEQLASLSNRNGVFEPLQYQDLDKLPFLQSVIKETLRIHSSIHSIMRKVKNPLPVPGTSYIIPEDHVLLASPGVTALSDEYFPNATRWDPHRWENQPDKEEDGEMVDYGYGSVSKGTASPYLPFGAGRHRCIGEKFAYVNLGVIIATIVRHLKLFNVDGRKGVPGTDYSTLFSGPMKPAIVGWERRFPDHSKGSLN
# assay_summary: Binding affinity to Aspergillus fumigatus CYP51
parameter: Kd

[in] I'd like to know its Kd. The molecule in question is N#Cc1ccc(COc2ccc(C#Cc3ccc(C(F)(F)C(O)(Cn4cnnn4)c4ccc(F)cc4F)nc3)cc2)cc1 (single isomer, unassigned; (+))
[out] 13 nM

* * *

# assay_summary: Half life in Swiss albino mouse lung at 5 mg/kg, po measured during 0.5 to 48 hrs post dose by HPLC/MS/MS method
# Format: ADME, organism-based
parameter: half-life

[in] I'd like to know its half-life. The compound in question is N#Cc1ccc(COc2ccc(C#Cc3ccc(C(F)(F)C(O)(Cn4cnnn4)c4ccc(F)cc4F)nc3)cc2)cc1 (single isomer, unassigned; (+))
[out] 16 to 19 h

* * *

# target_of_assay: Lanosterol 14-alpha demethylase (Aspergillus) (UniProt B8NUK6+Q9P8R0+G4WW85)
# assay_summary: Inhibition of CYP51 in Aspergillus fumigatus assessed as inhibition of microbe growth incubated for 48 to 168 hrs by CLSI M27-A3 guideline based method
Catalogue of MIC100 values

Below, 3 compounds whose answers are already recorded.
[
  {
    "compound": "N#Cc1cccc(COc2ccc(C#Cc3ccc(C(F)(F)C(O)(Cn4cnnn4)c4ccc(F)cc4F)nc3)cc2)c1 (centres undefined)",
    "MIC100": "> 64 µg/mL"
  },
  {
    "compound": "CNC(=O)c1ccc(COc2ccc(C#Cc3ccc(C(F)(F)C(O)(Cn4cnnn4)c4ccc(F)cc4F)nc3)cc2)cc1 (centres undefined)",
    "MIC100": "> 64 µg/mL"
  },
  {
    "compound": "N#Cc1ccc(COc2ccc(C#Cc3ccc(C(F)(F)C(O)(Cn4cnnn4)c4ccc(F)cc4F)nc3)cc2)cc1F (single isomer, unassigned; (+))",
    "MIC100": "0.5 µg/mL"
  }
]

[in] I'd like to know its MIC100. The compound in question is OC(Cn1cncn1)(Cn1cncn1)c1ccc(F)cc1F
[out] > 64 µg/mL
